ASSAYED_SYSTEM: Gal(b1-4)GlcNAc(b1-3)Gal(b1-4)GlcNAc(b1-3)Gal(b1-4)GlcNAc(b1-3)Gal(b1-4)GlcNAc(b1-2)[Gal(b1-4)GlcNAc(b1-3)Gal(b1-4)GlcNAc(b1-3)Gal(b1-4)GlcNAc(b1-3)Gal(b1-4)GlcNAc(b1-6)]Man(a1-6)[Gal(b1-4)GlcNAc(b1-3)Gal(b1-4)GlcNAc(b1-3)Gal(b1-4)GlcNAc(b1-3)Gal(b1-4)GlcNAc(b1-2)Man(a1-3)]Man(b1-4)GlcNAc(b1-4)[Fuc(a1-6)]GlcNAc
METHOD_DESCRIPTION: glycan array binding signal (z-score within array); higher = stronger binding
SETTINGS: glycan notation: IUPAC condensed, linker removed
This is one part of a sample in which the strongest signals are shown more often than they occur.
ASSAY_READOUT: glycan array binding signal (z-score)
No unit in the answer, please; the number alone is enough.

These recorded examples may help you get a feel for the data.
AT5G24760(45) (Arabidopsis thaliana), Q8LEB2 (protein) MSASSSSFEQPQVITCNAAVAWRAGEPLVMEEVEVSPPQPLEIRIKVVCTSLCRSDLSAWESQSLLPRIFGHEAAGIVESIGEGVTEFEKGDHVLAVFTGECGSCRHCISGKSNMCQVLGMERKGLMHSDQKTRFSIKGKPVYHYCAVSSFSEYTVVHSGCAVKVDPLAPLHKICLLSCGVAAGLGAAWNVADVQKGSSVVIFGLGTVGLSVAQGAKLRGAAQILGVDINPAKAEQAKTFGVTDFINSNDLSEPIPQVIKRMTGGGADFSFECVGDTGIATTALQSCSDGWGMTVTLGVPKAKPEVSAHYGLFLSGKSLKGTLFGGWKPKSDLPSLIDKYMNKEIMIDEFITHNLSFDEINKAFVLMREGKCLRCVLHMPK : -0.779
Sp8391B-bot-388-20-388 (Bacteroides ovatus) (protein) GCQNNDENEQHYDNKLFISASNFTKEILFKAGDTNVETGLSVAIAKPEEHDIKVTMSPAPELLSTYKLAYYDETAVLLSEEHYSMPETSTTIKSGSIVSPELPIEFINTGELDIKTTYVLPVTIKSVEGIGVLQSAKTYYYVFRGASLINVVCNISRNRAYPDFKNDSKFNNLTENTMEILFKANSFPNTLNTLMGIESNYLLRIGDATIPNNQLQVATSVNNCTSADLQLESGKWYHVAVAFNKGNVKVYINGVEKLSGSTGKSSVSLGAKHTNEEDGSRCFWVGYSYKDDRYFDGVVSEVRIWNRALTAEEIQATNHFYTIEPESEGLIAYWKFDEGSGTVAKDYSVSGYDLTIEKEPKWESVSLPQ : -0.629
DC-ASGPR S+GEE (Homo sapiens) (protein) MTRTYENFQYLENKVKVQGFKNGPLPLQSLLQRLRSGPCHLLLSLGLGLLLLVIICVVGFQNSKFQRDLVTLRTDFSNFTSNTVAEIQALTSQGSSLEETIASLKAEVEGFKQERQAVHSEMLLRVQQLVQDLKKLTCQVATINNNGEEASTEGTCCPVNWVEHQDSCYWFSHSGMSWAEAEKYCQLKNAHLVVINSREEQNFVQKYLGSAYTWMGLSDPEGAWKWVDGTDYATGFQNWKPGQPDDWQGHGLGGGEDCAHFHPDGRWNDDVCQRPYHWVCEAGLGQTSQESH : -0.145

Field: next binder
// glycan array binding signal (z-score) lookup, key: LSL-150 (Laetiporus sulphureus), Q7Z8V1 (protein) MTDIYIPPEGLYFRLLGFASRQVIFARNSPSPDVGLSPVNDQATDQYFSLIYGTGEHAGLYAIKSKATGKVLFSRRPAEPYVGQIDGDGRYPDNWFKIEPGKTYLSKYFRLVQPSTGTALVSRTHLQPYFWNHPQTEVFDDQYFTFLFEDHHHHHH
6.23

The measurements presented in this section are drawn from the supplement of paper PMC8728848.
